The values you see were collected from a protein production outcome set (Wang et al. 2014).

- Method: label from the status in PepcDB records

- Residue Sequence: "MAAKKPLFEVIASKIKDSINRDEYKTGMLMPNETALQEIYSSSRTTIRRAVDLLVEEGLVVRKNGVGLYVQPKLTAQNILEMTGVMKNDTNENLKKDIKDFYIRKAGKFYAEIFGMKENELVYSIKFVQKSEHGATLDRLILPLGLYPDLQAKDFQIINIIELVNSGKYKLFELEQELQLILAGNEQIKNMHLNENDPVFKLSSVFYAENDMPIAIQYHYEDAESTKYVVDFN"
  protein production: "not failed"
- Residue Sequence: "MKYQNFIMRILCLLLILAAVVGYNSMQKKDTQAQESQEITALTKRVEKLEEQNTEILSALEEAAKNQEAAIAQAQRDAKDKDDAAKEDAEGADAADTEESDDSENVYKDGTYTGSAQGFGGAITVQVTLANDEITDIQVTSAPGEDSAYLSQGEGVISSIISAQSTDVDTVSGATFSSTGIINAVVDALGKAEN"
  protein production: "failed"
- Residue Sequence: "MRRKNLFWDDVYKGTPPWDLDHPQPAFEALIKNGEIKPGRALDIGCGRGENAIILAMNGCDVIGIDLAENAISDAKAKATERHVKVKFVVEDALQMNRLFEEGEFDVVIDSGLFHVMMDEQRRVFAQQVHRVLREGGKYFMLCFSDKEPGEYELPRRLSKAEIESTFSPVFDITYIKEAVFDSLLSPSRRKAYLLSATRSLEHHHHHH"
  protein production: "failed"
- Residue Sequence: "MILGIDVGGTSVKFGLVTPEGEIQNATRFMTADWVNGIGFVESMKLEIGNFLKQYPIVKGVGIGWPGLVSLDRTKVILLPNIPSVVNVPIVEILRSEFPHIHFKIENDAKCAALGEYYFGENKRMQTFILLALGTGVGSGVMMNGKLFIGGRGNGTEVGHMLTTRGKSLENQVGINHLIAYTHEQLALDVAKKSSLHTIAELSPKVIADHAAQGDALALAVWADIGTIIGESLVNIVRVMDLNNILLGGGISGAFDYFVPNLKKAMLEHLPTYYTDDMYIGKATLENDAGLLGAAGLIMEAI"
  protein production: "not failed"
